# tgt: human TLR9 (Homo sapiens, UniProt Q9NR96)
# Sequence (Q9NR96 26-1032): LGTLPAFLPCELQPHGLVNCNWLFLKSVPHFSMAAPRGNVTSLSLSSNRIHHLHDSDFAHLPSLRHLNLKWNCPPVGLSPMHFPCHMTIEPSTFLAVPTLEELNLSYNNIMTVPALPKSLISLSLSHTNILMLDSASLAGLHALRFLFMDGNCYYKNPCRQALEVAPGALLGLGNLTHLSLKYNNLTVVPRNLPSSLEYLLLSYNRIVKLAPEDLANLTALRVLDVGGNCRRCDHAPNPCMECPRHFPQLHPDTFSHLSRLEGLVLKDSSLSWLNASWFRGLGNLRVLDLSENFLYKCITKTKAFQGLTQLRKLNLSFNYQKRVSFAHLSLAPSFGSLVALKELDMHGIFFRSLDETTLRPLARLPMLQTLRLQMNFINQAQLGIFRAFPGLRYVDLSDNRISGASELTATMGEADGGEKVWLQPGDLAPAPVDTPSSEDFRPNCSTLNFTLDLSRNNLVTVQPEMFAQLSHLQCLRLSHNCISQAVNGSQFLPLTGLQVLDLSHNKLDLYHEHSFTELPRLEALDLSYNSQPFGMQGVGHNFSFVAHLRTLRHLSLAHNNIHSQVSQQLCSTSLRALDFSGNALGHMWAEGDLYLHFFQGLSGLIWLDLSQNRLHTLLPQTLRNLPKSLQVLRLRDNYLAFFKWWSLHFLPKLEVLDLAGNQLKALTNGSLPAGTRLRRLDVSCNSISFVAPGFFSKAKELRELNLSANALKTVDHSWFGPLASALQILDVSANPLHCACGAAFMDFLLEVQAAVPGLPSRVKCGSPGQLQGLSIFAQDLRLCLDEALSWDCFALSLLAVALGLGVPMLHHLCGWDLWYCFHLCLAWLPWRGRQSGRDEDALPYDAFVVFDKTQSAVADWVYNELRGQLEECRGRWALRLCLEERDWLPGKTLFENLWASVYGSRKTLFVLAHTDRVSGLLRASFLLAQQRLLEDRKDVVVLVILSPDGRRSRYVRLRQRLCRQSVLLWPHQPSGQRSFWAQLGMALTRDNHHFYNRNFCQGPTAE
# run.description: HEK293-Blue-hTLR-9 cells assay (SEAP reporter, ODN2006 stimulation)
# Assay type: cell-based
# test.parameters: HEK293-Blue-hTLR-9 cells, ODN2006 ligand, 20 hrs incubation; read-out: TLR9 IC50

compound: C[C@@H]1CN(c2ccc(C#N)n3nccc23)C[C@H](C(=O)NCC2CNCC2(F)F)O1 (some centres unmarked)
IC50: > 100 µM

compound: CCC(O)CNC(=O)[C@H]1CN(c2ccc(C#N)n3nccc23)C[C@@H](C)O1 (some centres unmarked)
IC50: > 100 µM

compound: C[C@@H]1CN(c2ccc(C#N)n3nccc23)C[C@H](C(=O)NC2CCOCC2)O1
IC50: > 100 µM

compound: COCCNC(=O)[C@H]1CN(c2ccc(C#N)n3nccc23)C[C@@H](C)O1
IC50: > 100 µM

compound: C[C@@H]1CN(c2ccc(C#N)n3nccc23)C[C@H](C(=O)NC23CC(CO)(C2)C3)O1
IC50: > 100 µM
